I'd appreciate it if you could supply EC50 values for the items below.

Record lookup: for 5-hydroxytryptamine receptor 2B (Homo sapiens, UniProt P41595), what EC50 belongs to c1ccc(Cn2cc3c(n2)CCNCC3)cc1 ?
> 10000 nM

Value wanted: EC50 (5-hydroxytryptamine receptor 2B (Homo sapiens, UniProt P41595)) of entry O=c1[nH]n(Cc2ccccc2)c2c1CCNCC2
> 10000 nM

I'm curious: which EC50 was measured for O=c1cc2c(nn1Cc1ccc(OC(F)(F)F)cc1)CCNCC2 tested on 5-hydroxytryptamine receptor 2B (Homo sapiens, UniProt P41595)?
> 10000 nM

Given the entry O=c1cc2c(nn1Cc1cccc(Cl)c1)CCNCC2 , what EC50 was observed with 5-hydroxytryptamine receptor 2B (Homo sapiens, UniProt P41595)?
81 nM

Request: EC50, test system 5-hydroxytryptamine receptor 2B (Homo sapiens, UniProt P41595), entry O=c1c2c([nH]n1Cc1ccccc1)CCNCC2
> 10000 nM

Item O=c1cc2c(nn1CCOc1ccccc1)CCNCC2 with 5-hydroxytryptamine receptor 2B (Homo sapiens, UniProt P41595) - EC50?
> 10000 nM

Item: c1ccc(COc2n[nH]c3c2CCNCC3)cc1 Test system: 5-hydroxytryptamine receptor 2B (Homo sapiens, UniProt P41595) Read-out: EC50 Value: ?
353 nM

Hello, I am looking for reported EC50 with 5-hydroxytryptamine receptor 2B (Homo sapiens, UniProt P41595) for O=c1cc2c(nn1Cc1ccccc1Cl)CCNCC2 . Could you help?
94 nM

====

- Test summary: physchem
- Condition label: buffer, pH 7.4
- Description: Lipophilicity, log D at pH 7.4
The label 1 is reserved for logD strictly under 0.5; 0 covers values equal to or above it.

Is logD of O=c1c2c([nH]n1Cc1ccccc1)CCNCC2 strictly below 0.5?
1

Lab log: compare recorded logD with 0.5; is it strictly lower for O=c1cc2c(nn1Cc1ccc(OC(F)(F)F)cc1)CCNCC2 ?
0

Problem: For the compound O=c1cc2c(nn1Cc1cccc(Cl)c1)CCNCC2 , is logD under 0.5?
0

is_below(logD, 0.5) for O=c1cc2c(nn1CCOc1ccccc1)CCNCC2 ?
1

Is it true that logD reported for O=c1cc2c(nn1Cc1ccccc1Cl)CCNCC2 is less than 0.5?
0

Just wondering, is logD of O=c1cc2c(nn1Cc1ccc(C3CC3)cc1)CCNCC2 below 0.5?
0

====

- Study target: 5-hydroxytryptamine receptor 2C (Homo sapiens)
- Test summary: Agonist activity at human recombinant 5HT2C receptor expressed in CHO K1 cells assessed as induction of calcium mobilization by FLIPR assay relative to 5-HT
- Assay type: functional, cell-based
Short version: Emax at least 60% is t, less is f.

Hi, just wondering whether N#Cc1ccc(Cn2nc3c(cc2=O)CCNCC3)cc1 shows Emax of 60% or higher.
f

Could you please find out whether O=c1cc2c(nn1Cc1ccccc1)CCNCC2 has Emax that meets 60% or exceeds it?
t

Does O=c1cc2c(nn1Cc1ccc(C(F)(F)F)cc1)CCNCC2 have a reported Emax of at least 60%?
f

Determine whether this compound has Emax no lower than 60%: CC(C)CCn1nc2c(cc1=O)CCNCC2
t

Hello, I need to know if Clc1cccc(N2CCNCC2)c1 has measured Emax not below 60%. Thanks!
t

# bool: Emax of O=c1cc2c(nn1Cc1cccc(Cl)c1)CCNCC2 >= 60%
t

Given the entry O=c1[nH]n(Cc2ccccc2)c2c1CCNCC2 , answer whether its Emax meets or surpasses 60%.
t

Is it the case that O=c1c2c([nH]n1Cc1ccccc1)CCNCC2 has Emax reaching or exceeding 60%?
f

Decide: Emax of c1ccc(Cn2cc3c(n2)CCNCC3)cc1 >= 60%?
t

Is the recorded value of Emax equal to or greater than 60% for this compound? O=c1cc2c(nn1Cc1ccccc1OC(F)(F)F)CCNCC2
f

Item O=c1cc2c(nn1Cc1ccc(Cl)cc1)CCNCC2 with Emax of 60% or above?
f

Could you please find out whether O=c1cc2c(nn1Cc1ccc(C3CC3)cc1)CCNCC2 has Emax that meets 60% or exceeds it?
f

Hi team, for O=c1cc2c(nn1Cc1ccccc1Cl)CCNCC2 , is the recorded Emax at or above 60%?
f

Tell me whether Emax is at least 60% here: O=c1cc2c(nn1Cc1ccc(OC(F)(F)F)cc1)CCNCC2
t

// inclusive: Emax at least 60%? input: Cn1nc2c(cc1=O)CCNCC2
f

====

- Study target: Voltage-gated inwardly rectifying potassium channel KCNH2 (Homo sapiens, UniProt Q12809)
- Sequence (Q12809 whole entry): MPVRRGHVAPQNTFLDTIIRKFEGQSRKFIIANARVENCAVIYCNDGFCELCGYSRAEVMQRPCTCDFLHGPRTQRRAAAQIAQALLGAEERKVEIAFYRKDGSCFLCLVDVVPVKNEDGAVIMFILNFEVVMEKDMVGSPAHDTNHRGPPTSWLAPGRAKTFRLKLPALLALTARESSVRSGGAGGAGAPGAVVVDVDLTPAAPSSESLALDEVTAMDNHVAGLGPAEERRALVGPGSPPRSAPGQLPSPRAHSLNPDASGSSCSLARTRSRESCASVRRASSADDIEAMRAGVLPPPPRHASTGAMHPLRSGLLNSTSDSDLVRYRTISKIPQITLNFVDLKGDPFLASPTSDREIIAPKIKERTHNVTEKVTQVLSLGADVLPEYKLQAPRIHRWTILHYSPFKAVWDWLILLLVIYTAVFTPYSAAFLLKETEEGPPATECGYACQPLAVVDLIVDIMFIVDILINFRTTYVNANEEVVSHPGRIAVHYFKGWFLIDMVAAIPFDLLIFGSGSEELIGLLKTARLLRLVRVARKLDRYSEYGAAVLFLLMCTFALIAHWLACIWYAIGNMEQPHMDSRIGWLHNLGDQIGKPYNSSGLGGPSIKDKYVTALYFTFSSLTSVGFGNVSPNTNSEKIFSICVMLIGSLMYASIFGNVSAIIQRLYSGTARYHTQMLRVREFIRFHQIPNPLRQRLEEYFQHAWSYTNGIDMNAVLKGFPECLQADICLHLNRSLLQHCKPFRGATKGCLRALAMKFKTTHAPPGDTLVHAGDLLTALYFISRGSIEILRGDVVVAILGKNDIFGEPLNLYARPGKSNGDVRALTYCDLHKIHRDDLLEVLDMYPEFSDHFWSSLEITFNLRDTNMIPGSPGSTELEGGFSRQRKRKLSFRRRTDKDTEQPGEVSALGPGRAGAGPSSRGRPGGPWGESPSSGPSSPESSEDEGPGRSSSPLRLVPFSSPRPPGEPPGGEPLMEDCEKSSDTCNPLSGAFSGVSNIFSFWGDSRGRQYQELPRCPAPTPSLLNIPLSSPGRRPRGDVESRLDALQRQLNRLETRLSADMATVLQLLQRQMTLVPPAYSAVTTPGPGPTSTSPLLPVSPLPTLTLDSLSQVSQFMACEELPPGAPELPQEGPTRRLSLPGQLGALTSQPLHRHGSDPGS
Property label: Ki

Field request: Ki | item: Cc1nc2c3c(nc(Cc4ccccc4)n2n1)CCNCC3
> 22 µM

====

Sequence of the target: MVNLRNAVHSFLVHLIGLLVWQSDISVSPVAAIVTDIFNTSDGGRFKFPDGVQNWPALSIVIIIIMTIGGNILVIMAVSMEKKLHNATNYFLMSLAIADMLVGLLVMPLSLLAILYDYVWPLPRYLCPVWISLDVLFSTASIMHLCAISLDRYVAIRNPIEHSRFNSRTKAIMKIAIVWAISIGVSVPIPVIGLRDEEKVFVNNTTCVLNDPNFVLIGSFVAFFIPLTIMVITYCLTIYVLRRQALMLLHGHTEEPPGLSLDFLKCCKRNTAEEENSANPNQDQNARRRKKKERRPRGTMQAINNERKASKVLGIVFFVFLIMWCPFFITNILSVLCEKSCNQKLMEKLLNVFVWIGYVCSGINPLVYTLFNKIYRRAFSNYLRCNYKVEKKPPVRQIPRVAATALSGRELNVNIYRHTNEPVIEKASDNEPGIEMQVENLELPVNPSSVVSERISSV
Property label: pEC50
Answer as the number alone; pEC50 is minus log10 of concentration in mol/L.

Which pEC50 value belongs to O=c1cc2c(nn1Cc1ccc(C(F)(F)F)cc1)CCNCC2 ?
6.90

For O=c1cc2c(nn1Cc1ccccc1)CCNCC2 , what is its reported pEC50?
7.51

Please report the recorded pEC50 for O=c1cc2c(nn1Cc1cccc(Cl)c1)CCNCC2 .
7.52

Item under review: O=c1cc2c(nn1Cc1ccc(Cl)cc1)CCNCC2 . Reported pEC50?
7.51

====

- Study target: 5-hydroxytryptamine receptor 2B (Homo sapiens)
- Sequence (P41595 whole entry): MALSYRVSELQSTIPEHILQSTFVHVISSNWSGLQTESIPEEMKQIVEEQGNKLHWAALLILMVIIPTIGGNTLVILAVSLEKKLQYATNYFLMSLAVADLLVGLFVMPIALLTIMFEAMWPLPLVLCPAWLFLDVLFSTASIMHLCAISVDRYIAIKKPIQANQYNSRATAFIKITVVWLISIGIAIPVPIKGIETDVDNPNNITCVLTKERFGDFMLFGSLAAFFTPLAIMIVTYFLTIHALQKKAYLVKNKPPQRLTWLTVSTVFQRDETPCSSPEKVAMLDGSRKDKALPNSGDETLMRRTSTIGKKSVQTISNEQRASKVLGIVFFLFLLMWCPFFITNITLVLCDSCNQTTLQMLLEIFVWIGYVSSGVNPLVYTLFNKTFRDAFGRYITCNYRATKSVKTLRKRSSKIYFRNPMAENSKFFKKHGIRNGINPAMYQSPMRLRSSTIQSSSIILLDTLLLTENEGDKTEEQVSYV
- Test summary: Agonist activity at human recombinant 5HT2B receptor assessed as induction of calcium mobilization by FLIPR assay relative to 5-HT
- Assay type: functional
Property label: Emax (%)
Give just the numeric value; % need not be written.

So what's the measured Emax for this one? O=c1cc2c(nn1Cc1ccccc1Cl)CCNCC2
67

Any idea what its Emax is? The molecule is O=c1cc2c(nn1Cc1ccccc1)CCNCC2
48

Look up Emax for this molecule: O=c1cc2c(nn1Cc1ccc(Cl)cc1)CCNCC2
73

I would be grateful if you could share the reported Emax for c1ccc(COc2n[nH]c3c2CCNCC3)cc1 .
56

Any idea what its Emax is? The molecule is O=c1cc2c(nn1Cc1ccc(C3CC3)cc1)CCNCC2
34

Item under review: O=c1cc2c(nn1Cc1cccc(Cl)c1)CCNCC2 . Reported Emax?
73

Look up Emax for this molecule: O=c1cc2c(nn1Cc1ccc(OC(F)(F)F)cc1)CCNCC2
58

Could you tell me which Emax is on file for O=c1cc2c(nn1Cc1ccc(C(F)(F)F)cc1)CCNCC2 ?
59

Request the reported Emax associated with Clc1cccc(N2CCNCC2)c1
35

Need Emax of O=c1cc2c(nn1Cc1ccccc1OC(F)(F)F)CCNCC2 , thanks.
86

====

- Test summary: physchem
- Condition label: buffer, pH 7.4
Note to self: logD under 0.1 means MET, ties and anything higher get NOT MET.

Field: below-cutoff. Rule: recorded logD strictly less than 0.1. Subject: N#Cc1ccc(Cn2nc3c(cc2=O)CCNCC3)cc1
MET

State whether 0.1 exceeds logD recorded for O=c1cc2c(nn1-c1ccccc1)CCNCC2 .
MET

Just wondering, is logD of O=c1[nH]n(Cc2ccccc2)c2c1CCNCC2 below 0.1?
MET

Identify whether the compound O=c1cc2c(nn1Cc1ccccc1OC(F)(F)F)CCNCC2 records logD below 0.1.
NOT MET

Lab log: compare recorded logD with 0.1; is it strictly lower for O=c1cc2c(nn1Cc1ccc(C(F)(F)F)cc1)CCNCC2 ?
NOT MET

Item O=c1cc2c(nn1Cc1ccc(Cl)cc1)CCNCC2 : logD beneath 0.1, strictly?
NOT MET

====

- Test summary: Plasma concentration in dog model of stress incontinence at 150 ug/kg, iv after 60 mins
- Assay type: ADME, organism-based, Canis lupus familiaris
- Condition label: 0.15 mg/kg
Property label: concentration at 1 h (nM)
State the answer as a number, implicitly in nM.

May I ask what concentration at 1 h has been recorded for Cc1nc2c3c(nc(Cc4ccccc4)n2n1)CCNCC3 ?
89

====

- Study target: Muscarinic acetylcholine receptor M3 (Homo sapiens, UniProt P20309)
- Sequence (P20309 whole entry): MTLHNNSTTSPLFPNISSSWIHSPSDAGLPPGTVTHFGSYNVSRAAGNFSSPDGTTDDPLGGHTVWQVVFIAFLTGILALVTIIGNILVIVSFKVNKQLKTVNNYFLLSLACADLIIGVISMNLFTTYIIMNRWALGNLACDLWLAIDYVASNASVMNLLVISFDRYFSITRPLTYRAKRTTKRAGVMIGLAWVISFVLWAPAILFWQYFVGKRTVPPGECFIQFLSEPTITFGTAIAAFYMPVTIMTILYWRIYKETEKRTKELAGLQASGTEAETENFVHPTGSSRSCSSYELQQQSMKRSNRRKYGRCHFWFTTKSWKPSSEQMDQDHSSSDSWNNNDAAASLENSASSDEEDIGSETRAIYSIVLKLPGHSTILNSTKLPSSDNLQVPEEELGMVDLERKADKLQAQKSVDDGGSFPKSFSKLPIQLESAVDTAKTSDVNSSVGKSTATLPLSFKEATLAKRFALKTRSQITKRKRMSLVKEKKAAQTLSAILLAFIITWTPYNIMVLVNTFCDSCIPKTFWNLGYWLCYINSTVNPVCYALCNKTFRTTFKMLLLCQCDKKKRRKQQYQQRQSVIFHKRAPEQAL
- Test summary: Inhibition of muscarinic receptor 3
Property label: Ki (µM)
Supply the numeric figure in µM, leaving out any unit text.

Name the recorded Ki for Cc1nc2c3c(nc(Cc4ccccc4)n2n1)CCNCC3 .
8.2
